Form field: inhibition (one value per entry).
target_under_test: Protein RecA (Mycobacterium tuberculosis (strain ATCC 25618 / H37Rv))
assay: Mtb RecA intein splicing inhibitors, primary screen, biochemical, fluorescence, HTS (AID 2221);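 also: 0% = vehicle wells and 100% = reference inhibitor control wells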
run_parameters: cell-free RecA intein splicing, hits give high values, concentration not given here
About 2,200 (0.76%) of roughly 290,000 compounds were called active. What follows is part of a selection rich in actives, with near analogues and random picks from the rest.
measurement_kind: inhibition (%)

>>> df
                                    molecule                         target_under_test  data_value
 0             Cn1cc(CCC(=O)NC2CC2)c2ccccc21  Protein RecA (Mycobacterium tuberculosis (strain ATCC 25618 / H37Rv))      -0.418
 1  Cc1ccc(SC(CC(=O)c2ccc(C(C)(C)C)cc2)C(=O)O)cc1 (configuration not stated)  Protein RecA (Mycobacterium tuberculosis (strain ATCC 25618 / H37Rv))        8.11
 2  COCCN1CCN(C(=O)c2cc(COc3ccc(F)cc3Cl)on2)CC1  Protein RecA (Mycobacterium tuberculosis (strain ATCC 25618 / H37Rv))       -1.15
 3  COc1ccc(COC(=O)NC(C(=O)O)c2ccccc2)cc1 (configuration not stated)  Protein RecA (Mycobacterium tuberculosis (strain ATCC 25618 / H37Rv))       -3.65
 4  COc1ccc(C(CCN(Cc2ccc(OC)c(OC)c2)C(=O)CCl)c2ccccc2)cc1 (configuration not stated)  Protein RecA (Mycobacterium tuberculosis (strain ATCC 25618 / H37Rv))        77.7
 5  O=C(CN(C(=O)CNC(=O)c1cccs1)c1cccc(F)c1)NC1CCCCC1  Protein RecA (Mycobacterium tuberculosis (strain ATCC 25618 / H37Rv))        2.36
 6  CCN(C(=O)CSc1nnc(-c2ccc(OC(F)F)cc2)n1N)C1CCS(=O)(=O)C1 (configuration not stated)  Protein RecA (Mycobacterium tuberculosis (strain ATCC 25618 / H37Rv))       -2.58
 7  O=C(Cc1ccccc1F)NC1CCSc2ccccc21 (configuration not stated)  Protein RecA (Mycobacterium tuberculosis (strain ATCC 25618 / H37Rv))      -0.276
 8  CCn1c(CC(=O)Nc2ccccc2)nnc1SCC(=O)N1CCOCC1  Protein RecA (Mycobacterium tuberculosis (strain ATCC 25618 / H37Rv))       -3.34
 9  CC(=O)Nc1ccc(N2C(=O)CC(Sc3nccc(C)n3)C2=O)cc1 (configuration not stated)  Protein RecA (Mycobacterium tuberculosis (strain ATCC 25618 / H37Rv))       -1.08
10  Cc1onc(-c2c(Cl)cccc2Cl)c1C(=O)NNC(=O)c1c(-c2c(Cl)cccc2Cl)noc1C  Protein RecA (Mycobacterium tuberculosis (strain ATCC 25618 / H37Rv))       0.133
11   O=C(COc1ccc(Cl)cc1Cl)NCCCNC(=O)c1cnccn1  Protein RecA (Mycobacterium tuberculosis (strain ATCC 25618 / H37Rv))        1.17
12  COc1ccc(CN(C)C(=O)CC(c2ccccc2)c2ccccc2)cc1  Protein RecA (Mycobacterium tuberculosis (strain ATCC 25618 / H37Rv))          12
13  CC1(N2CCOCC2)CC2(O)C(=[N+]1[O-])CCc1nonc12 (configuration not stated)  Protein RecA (Mycobacterium tuberculosis (strain ATCC 25618 / H37Rv))        59.8
14  Cc1[nH]n(C)c(=O)c1C(=O)c1c(-c2c(Cl)cccc2Cl)noc1C  Protein RecA (Mycobacterium tuberculosis (strain ATCC 25618 / H37Rv))        77.1
15  CC(=O)Oc1ccc(N(C(C)=O)S(=O)(=O)c2ccc3ccccc3c2)cc1Br  Protein RecA (Mycobacterium tuberculosis (strain ATCC 25618 / H37Rv))        36.3
16  COc1ccc(NC(=O)c2cc(-c3cc(OC)c(OC)c(OC)c3)nc3ccccc23)c(OC)c1  Protein RecA (Mycobacterium tuberculosis (strain ATCC 25618 / H37Rv))        10.4
17  Nc1[nH]c(=S)nc2nc(-c3ccccc3)c(-c3ccccc3)nc12  Protein RecA (Mycobacterium tuberculosis (strain ATCC 25618 / H37Rv))       -3.24
18  CCOC(=O)c1ccc(Nc2cc3ccccc3c(=O)[nH]2)cc1  Protein RecA (Mycobacterium tuberculosis (strain ATCC 25618 / H37Rv))        62.4
19  Cc1onc(-c2c(Cl)cccc2Cl)c1C(=O)c1c[nH]c(C(=O)NC2CC2)c1  Protein RecA (Mycobacterium tuberculosis (strain ATCC 25618 / H37Rv))        5.76
20  CCOC(=O)c1nc(Nc2ccc(C(=O)OC)cc2)c2ccccc2n1  Protein RecA (Mycobacterium tuberculosis (strain ATCC 25618 / H37Rv))       -6.39
21  O=C(Nc1ncccc1O)c1ccc(S(=O)(=O)N2CCCCCC2)cc1  Protein RecA (Mycobacterium tuberculosis (strain ATCC 25618 / H37Rv))      -0.935
